Target: Cytochrome P450 2D6 (Homo sapiens)
Test: Cytochrome panel assay with activity outcomes; on activity, negative = inhibition: on the % scale 0 is the no-effect control and ±100 the full control effect
Conditions: recombinant CYP, pro-luciferin dealkylation, luminescence, p450-cyp2d6; series mostly up to 57.1 µM
Among all 16,000 compounds or so, about 2,600 (16%) were called active. Not shown: some 20% with an inconclusive outcome. Only a sample is shown.
Parameter: activity, negative = inhibition. Scope: all listed entries.

For orientation, consider the following solved cases.
CC[C@@]1(O)C(=O)OCc2c1cc1n(c2=O)Cc2cc3c(CN(C)C)c(O)ccc3nc2-1 -7.02% [at 11.4 µM] (inactive)
CCCNC(=O)OC[C@@H]1O[C@H](CCO/N=C(\C)CCN2CCc3nc(-c4ccccc4)c(-c4ccccc4)cc3C2)C=C[C@@H]1Oc1ccc(OC)cc1 -6.26% [at 11.4 µM] (inactive)
O=C(O)c1ccc(C(=O)c2ccccc2)c(C(=O)O)c1 14.9% [at 11.4 µM] (inactive)

Suppose we examine the molecule CO[C@H]1COC(=O)[C@H](C)NC(=O)C/C=C\[C@@H](C)[C@H](OC)COC(=O)[C@@H](OCc2ccccc2)/C=C\[C@@H]1C ; what activity, negative = inhibition value has been reported?
3.57% [at 11.4 µM] (inactive)

What do you have for Cn1c(N)c(N=Nc2ccc(S(N)(=O)=O)cc2)c(=O)n(C)c1=O ?
5.11% [at 11.4 µM] (inactive)

---

Target: Cytochrome P450 2D6 (Homo sapiens) (UniProt P10635)
Sequence (P10635 whole entry, looked up): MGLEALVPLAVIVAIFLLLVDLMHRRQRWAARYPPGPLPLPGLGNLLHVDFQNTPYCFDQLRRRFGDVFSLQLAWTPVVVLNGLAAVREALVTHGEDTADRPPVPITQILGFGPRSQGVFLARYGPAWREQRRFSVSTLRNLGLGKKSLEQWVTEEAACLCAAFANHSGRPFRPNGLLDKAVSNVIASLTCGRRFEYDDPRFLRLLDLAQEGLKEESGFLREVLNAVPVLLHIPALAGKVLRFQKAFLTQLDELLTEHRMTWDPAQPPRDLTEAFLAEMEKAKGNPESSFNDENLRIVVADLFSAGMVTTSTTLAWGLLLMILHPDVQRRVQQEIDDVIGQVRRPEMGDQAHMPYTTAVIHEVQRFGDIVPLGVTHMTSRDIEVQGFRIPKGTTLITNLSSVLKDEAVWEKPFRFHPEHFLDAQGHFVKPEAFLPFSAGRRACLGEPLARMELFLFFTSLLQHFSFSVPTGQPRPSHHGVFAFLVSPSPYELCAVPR
Experiment: Cytochrome panel assay with activity outcomes; on activity, negative = inhibition: on the % scale 0 is the no-effect control and ±100 the full control effect
Conditions: recombinant CYP, pro-luciferin dealkylation, luminescence, p450-cyp2d6; series mostly up to 57.1 µM
About 2,600 (16%) of roughly 16,000 compounds were called active. Another 20% or so got no clear call; they are omitted. Only a sample is shown.
Parameter: activity, negative = inhibition. Scope: all listed entries.

N[C@@H](CSCc1ccccc1)C(=O)O -7.04% [at 11.4 µM] (inactive)
COc1ccc(C[N+](C)(C)N)cc1OC 0.726% [at 11.4 µM] (inactive)
CC(C)=CCC/C(C)=C/CO/N=C1/C[C@@H](O)[C@@H](O)[C@@H]2[C@@H]3C(=O)N(C[C@@H]4CCCO4)C(=O)[C@H]3CC[C@H]12 -9.15% [at 11.4 µM] (inactive)
O=[N+]([O-])c1nccn1C[C@H](O)CN1CCCCC1 9.02% [at 11.4 µM] (inactive)
CC[N+](C)(CC)CCN1C(=O)c2ccccc2S1(=O)=O -3.94% [at 11.4 µM] (inactive)

Form field: activity, negative = inhibition recorded for Cn1cnc([N+](=O)[O-])c1Sc1nc(N)nc2c1ncn2[C@H]1C[C@H](O)[C@@H](CO)O1 with Cytochrome P450 2D6 (Homo sapiens) (UniProt P10635) (enter value)
4.56% [at 11.4 µM] (inactive)

What do you have for Nc1ccc(S(=O)(=O)NCc2nccs2)cc1 ?
-11% [at 11.4 µM] (inactive)

What do you have for COc1ccc2c(=O)cc(-c3ccncc3)oc2c1OC ?
12.2% [at 11.4 µM] (inactive)

What do you have for O=C1c2ccccc2C(=O)N1C[C@]1(C(=O)O)NCCS1(=O)=O ?
7.33% [at 11.4 µM] (inactive)

What do you have for O=C(Nc1cccc2cccnc12)[C@@H]1[C@@H](C(=O)O)[C@H]2CC[C@@H]1O2 ?
5.88% [at 11.4 µM] (inactive)

---

Target: Cytochrome P450 2D6 (Homo sapiens)
Test: Cytochrome panel assay with activity outcomes
Conditions: recombinant CYP, pro-luciferin dealkylation, luminescence, p450-cyp2d6; series mostly up to 57.1 µM
Hit rate of the full screen: of about 16,000 compounds, about 2,600 (16%) were called active. Inconclusive results (about 20%) are left out. The call rests on the fitted dose curve; in most records, active means well fitted curve in the direction sought with a large enough effect; inconclusive means small, poorly fitted or top-dose-only effect, or effect the other way; inactive means no such curve, though single readings can be large or run the other way. These entries were drawn from the full list.
Just give me one of these, please: true (active), false (inactive)

MOLECULE	CLASS NAME
CC(C)NC(=O)N1CC[C@@]2(CCCN(S(C)(=O)=O)C2)C1	false
CC(C)NC(=O)N1CCC2(CC1)CCN(S(C)(=O)=O)CC2	true
CC(C)NC(=O)N1CCCC2(CCN(C(=O)c3cccn3C)CC2)C1	false
CS(=O)(=O)N1CCC2(CCCN(C(=O)Nc3cccc(F)c3)C2)CC1	false
Cc1cccc(Sc2c([N+](=O)[O-])ncn2C)n1	false

Which result was noted for this molecule in the test: O=C(Nc1cccc(F)c1)N1CCCC2(CCN(S(=O)(=O)c3ccccc3)CC2)C1
true

What do you have for C/C(=N\Nc1nnc(-c2ccccc2)c(-c2ccccc2)n1)c1cccc([N+](=O)[O-])c1 ?
false

What do you have for CC(C)NC(=O)N1CC2(CCN(S(=O)(=O)c3ccccc3)CC2)C1 ?
false

What do you have for CC(C)NC(=O)N1CCCC2(CCN(S(=O)(=O)c3ccccc3)CC2)C1 ?
true

What do you have for O=C(Nc1ccccc1C(=O)NCC1CCCO1)c1ccc(Cl)cc1Cl (stereo unspecified) ?
false

What do you have for C[C@](N)(C(=O)O)c1ccc(-c2nn[nH]n2)cc1 ?
false

---

Molecular target: Cytochrome P450 2D6 (Homo sapiens) (UniProt P10635)
Test: Cytochrome panel assay with activity outcomes; on activity, negative = inhibition: on the % scale 0 is the no-effect control and ±100 the full control effect
Conditions: recombinant CYP, pro-luciferin dealkylation, luminescence, p450-cyp2d6; series mostly up to 57.1 µM
Protocol: The P450 gene superfamily is involved in the metabolism and clearance of xenobiotics. This assay used various human CYP P450 isozymes to measure the dealkylation of various pro-luciferin substrates to luciferin. The luciferin is then measured by luminescence after the addition of a luciferase detection reagent. […] Inhibitors and some substrates limit the production of luciferin, and decrease measured luminescence. […] 8, Detection, 1 sec, ViewLux luminescent read […]
The campaign covered roughly 16,000 compounds. About 2,600 (16%) were called active. Inconclusive results (about 20%) are left out. Not all results are given here.
Parameter: activity, negative = inhibition. Scope: all listed entries.

Nc1nc(-c2cc(-c3cccc4ccccc34)nc(N)n2)cc(-c2cccc3ccccc23)n1 -0.19% [at 11.4 µM] (inactive)
Cc1ccccc1S(=O)(=O)O[C@@H]1NS(=O)(=O)c2ccccc21 6.51% [at 11.4 µM] (inactive)
O=C(O)C/C(=C\c1ccco1)C(=O)O 1.84% [at 11.4 µM] (inactive)

# ---- query compound ----
Suppose we examine the compound O=C1[C@@H]2[C@H]3[C@H](O)[C@H](O)C/C(=N/OC[C@@H](O)COCc4ccco4)[C@H]3CC[C@H]2C(=O)N1c1ccc(F)cc1F ; what activity, negative = inhibition value has been reported?
-0.021% [at 11.4 µM] (inactive)

---

Target: Cytochrome P450 2D6 (Homo sapiens)
Assay: Cytochrome panel assay with activity outcomes
Details: recombinant CYP, pro-luciferin dealkylation, luminescence, p450-cyp2d6; series mostly up to 57.1 µM
About 2,600 (16%) of roughly 16,000 compounds were called active. Roughly 20% stayed inconclusive and do not appear here. The call rests on the fitted dose curve; in most records, active means well fitted curve in the direction sought with a large enough effect; inconclusive means small, poorly fitted or top-dose-only effect, or effect the other way; inactive means no such curve, though single readings can be large or run the other way. Only a sample is shown.
Just give me one of these, please: active, inactive

A selection of reference data follows.
MOLECULE	TARGET ENTITY	CLASS NAME
CCCCNC(=O)C1CC(=O)N(CCC(C)C)C1 (stereo unspecified)	Cytochrome P450 2D6 (Homo sapiens)	inactive
Oc1cc2c(cc1O)[C@H](c1ccccc1)CNCC2	Cytochrome P450 2D6 (Homo sapiens)	inactive
CC1(C)SC(=S)N(Cc2ccc3c(c2)OCO3)C1N(O)C(=O)NC1CCCCC1 (stereo unspecified)	Cytochrome P450 2D6 (Homo sapiens)	active

Which result was noted for this molecule in the test: Cc1ccc2c(c1)C1(SCCS1)C(=O)N2
inactive

What do you have for Nc1ncnc2c1ncn2C1CCCC1 ?
inactive

What do you have for CC1=C(C(=O)Nc2ccccc2F)C(c2ccsc2)C2=C(CC(c3ccccc3)CC2=O)N1 (stereo unspecified) ?
inactive

---

Target: Cytochrome P450 2D6 (Homo sapiens)
Assay: Cytochrome panel assay with activity outcomes
Conditions: recombinant CYP, pro-luciferin dealkylation, luminescence, p450-cyp2d6; series mostly up to 57.1 µM
Among all 16,000 compounds or so, about 2,600 (16%) were called active. Not shown: some 20% with an inconclusive outcome. The call rests on the fitted dose curve; in most records, active means well fitted curve in the direction sought with a large enough effect; inconclusive means small, poorly fitted or top-dose-only effect, or effect the other way; inactive means no such curve, though single readings can be large or run the other way. These entries were drawn from the full list.
Just give me one of these, please: t = active, f = inactive

A selection of reference data follows.
CCOC(=O)c1cc(-c2ccccc2)sc1NC(=O)c1ccc(OC)cc1 f
CNc1ncnc2c1ncn2[C@H]1C[C@@H](OP(=O)(O)O)[C@H](COP(=O)(O)O)O1 f
CNc1ncnc2c1ncn2[C@H]1C[C@H](OP(=O)(O)O)[C@H](COP(=O)(O)O)O1 t
O=c1nc(-c2ccccc2)n(-c2ccccc2)c2ncccc12 f
Cc1ccc(C(C2C(=O)CC(C)(C)CC2=O)C2C(=O)CC(C)(C)CC2=O)s1 f

Which result was noted for this molecule in the test: CC(=O)c1c(C)nc(-c2ccccc2)n1O
f

---

Biological target: Cytochrome P450 2D6 (Homo sapiens) (UniProt P10635)
Assay: Cytochrome panel assay with activity outcomes
Details: recombinant CYP, pro-luciferin dealkylation, luminescence, p450-cyp2d6; series mostly up to 57.1 µM
Screen size: about 16,000 compounds; about 2,600 (16%) were called active. Another 20% or so got no clear call; they are omitted. The call rests on the fitted dose curve; in most records, active means well fitted curve in the direction sought with a large enough effect; inconclusive means small, poorly fitted or top-dose-only effect, or effect the other way; inactive means no such curve, though single readings can be large or run the other way. These entries were drawn from the full list.
Just give me one of these, please: Y = active, N = inactive

Which result was noted for this compound in the test: CCCCNC(=O)CSc1nc2cc(OC)c(OC)cc2c(=O)n1Cc1ccc(OC)cc1
N
